- Tested on: tyrosinase
- Assay Overview: Tyrosinase intensity in skin tissue of vitiligo guinea pig model (immunohistochemistry, two-level scoring)
- Assay type: in vivo
- Test Context: score in brackets for tyrosinase-positive cells, n = 10
Entries and their Number of positive cells (units)
Answer with a number only, understood to be in units.

Here's what some known entries look like.
| Compound | Value Observed |
| --- | --- |
| COc1ccc(CCC(=O)N(c2nccc3ccccc23)[C@@H]2CCCNC2)cc1 [Compound group 1, R-IMPP] | 3 |
| CC(=O)Nc1ccc(C(=O)N2CCN(c3ccc(C)cc3)CC2c2ccccc2)cc1 (stereo not shown) [Compound group 4, SBC-110736] | 3 |
| O=C(c1ccc(-n2nnc3cccnc32)cc1)N(c1ncccc1Cl)[C@@H]1CCCNC1 [Compound group 2, PF 06446846] | 4 |

Lab note: next compound to report on.
Inquiry: Dear colleague, I am looking for the recorded Number of positive cells (units) of the following compound: Cc1cc(C(=O)C2=C(O)C(=O)N(CCCN3CCOCC3)C2c2ccncc2)ccc1OCc1ccccc1 (stereo not shown) [Compound group 3, SBC-115076]
Reply text: 3
